tested target: SARS-CoV-2 Omicron EG.5.1 RBD (SARS-CoV-2 Omicron EG.5.1, F490S)
experiment notes: BLI
readout label: Kd

A selection of reference data follows.
C807 (antibody, V domains shown) VH: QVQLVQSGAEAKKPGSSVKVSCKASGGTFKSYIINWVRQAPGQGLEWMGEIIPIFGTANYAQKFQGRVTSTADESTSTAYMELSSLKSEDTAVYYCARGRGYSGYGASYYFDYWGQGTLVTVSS VL: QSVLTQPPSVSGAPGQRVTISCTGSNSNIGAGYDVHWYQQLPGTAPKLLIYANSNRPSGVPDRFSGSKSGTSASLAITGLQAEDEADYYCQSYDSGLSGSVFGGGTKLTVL : < 4.5 nM
C092 (antibody, V domains shown) VH: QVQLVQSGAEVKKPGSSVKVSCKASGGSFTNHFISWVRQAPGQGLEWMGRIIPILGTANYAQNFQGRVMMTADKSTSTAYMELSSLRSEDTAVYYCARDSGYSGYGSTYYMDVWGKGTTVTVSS VL: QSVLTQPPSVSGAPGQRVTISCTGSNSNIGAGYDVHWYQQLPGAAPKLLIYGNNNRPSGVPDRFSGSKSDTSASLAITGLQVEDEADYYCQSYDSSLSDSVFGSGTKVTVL : < 4.5 nM
BD56-597 (antibody, V domains shown) VH: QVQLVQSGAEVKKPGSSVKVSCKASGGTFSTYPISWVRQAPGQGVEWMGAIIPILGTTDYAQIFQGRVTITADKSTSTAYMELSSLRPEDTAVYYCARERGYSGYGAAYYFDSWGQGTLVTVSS VL: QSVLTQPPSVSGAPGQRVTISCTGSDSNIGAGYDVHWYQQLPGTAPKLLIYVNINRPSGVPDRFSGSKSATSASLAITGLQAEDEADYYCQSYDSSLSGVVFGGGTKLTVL : < 4.5 nM

Next item in the queue.
Query string: Given ZL525 (antibody, V domains shown) V domain 1: QVQLVQSGAEVKKPGSSMKVSCQASGGTFSSHPISWIRQAPGQGLEWMGRIIPIAGMTDYGQKFQGRITITADTSTSTSYVELRGLRSQDTAFYYCAKDVGYSDYGSAYYFHTWGQGTLITVSS V domain 2: QSVLTQPPSVSGAPGQRVTISCTGSNSNIGAGYDVHWYQQLPGTAPKLLIYRNNKRPSGVPDRFSGSKSDTSASLAITGLQAEDEAHYYCQSFDSSLGGSLFGGGTKLAVL , state its recorded Kd.
Result string: < 0.71 nM

Data origin, for the record: paper doi:10.64898/2025.12.19.695307
